- Test system: NCI-H226 lung
- ASSAY_REMARKS: NCI tumour cell line growth inhibition, 48 h
RESULT_TYPE: TGI

>  <COMPOUND>
CC(C)=CC(=O)c1[nH]c2ccccc2c1CC(=O)NCCc1cn(C(c2ccccc2)(c2ccccc2)c2ccccc2)cn1

>  <TARGET_ENTITY>
NCI-H226 lung

>  <RESULT_TYPE>
TGI

>  <READING>
6.28 µM

$$$$
>  <COMPOUND>
Cn1c(=O)n(CCCO)c(=O)c2c1nc(Oc1cccc(OC(F)(F)F)c1)n2Cc1ccc(Cl)cc1

>  <TARGET_ENTITY>
NCI-H226 lung

>  <RESULT_TYPE>
TGI

>  <READING>
38.4 µM

$$$$
>  <COMPOUND>
CN(C)c1[se]nc2c1c(=O)n(C)c(=O)n2C

>  <TARGET_ENTITY>
NCI-H226 lung

>  <RESULT_TYPE>
TGI

>  <READING>
> 100 µM

$$$$
>  <COMPOUND>
Nc1n[n+](=O)c2ccccc2n1O

>  <TARGET_ENTITY>
NCI-H226 lung

>  <RESULT_TYPE>
TGI

>  <READING>
> 100 µM

$$$$
>  <COMPOUND>
COc1ccc(C23OCC(Cc4cc(OC)c(OC)cc42)C3COC(C)=O)cc1OC (stereo not drawn)

>  <TARGET_ENTITY>
NCI-H226 lung

>  <RESULT_TYPE>
TGI

>  <READING>
> 100 µM

$$$$
>  <COMPOUND>
COc1cc(C2NCCC(c3ccccc3)(c3ccccc3)N2)cc(OC)c1OC (stereo not drawn)

>  <TARGET_ENTITY>
NCI-H226 lung

>  <RESULT_TYPE>
TGI

>  <READING>
43.8 µM

$$$$

Give TGI for all compounds that follow.
1. COc1cc(/C=C/C(=O)Oc2ccc(NC(C)=O)cc2)ccc1C(=O)OCc1ccccc1
2. COC1=CC(=O)c2c(ccc3ncnc(N)c23)C1=O
3. Cc1ccc(/C(=N/NS(=O)(=O)c2ccc([N+](=O)[O-])cc2)Sc2cc(Cl)c(C)cc2S(N)(=O)=O)cc1
4. COc1ccc(/C=C/c2nsc(/C=C/c3ccc(OC)cc3)n2)cc1
5. O=[N+]([O-])c1ccc(C(Br)c2ccc([N+](=O)[O-])cc2)cc1
6. C=CCc1cc(OC)c2c(c1)C(OC(C)=O)CC(c1ccc(OC)c(OC)c1)O2 (stereo not drawn)

Found:
1: > 100 µM; 2: 4.6 µM; 3: > 100 µM; 4: > 100 µM; 5: 23.7 µM; 6: > 100 µM

Give TGI for all compounds that follow.
1. CC(CCOc1c2ccoc2cc2oc(=O)ccc12)C1=CC(=O)C(C)(C)O1 (stereo not drawn)
2. COc1nc(NC2OC(COC(C)=O)C(OC(C)=O)C(OC(C)=O)C2OC(C)=O)c2c(OC(C)=O)c(C)c(=O)oc2n1 (stereo not drawn)
3. N#C/C(C(=O)Nc1ccccc1)=C(/N)N1CCCC1

Found:
> 100 µM
> 100 µM
> 100 µM

Give TGI for all compounds that follow.
1. O=C1O[C@@H](c2ccccc2)C[C@H]1CN1CCOCC1
2. CCN(C(=N)C#N)c1ccccc1
3. COc1ncc(-c2ccc3nccc(C#CCCCCC(=O)O)c3c2)cc1NS(=O)(=O)c1ccc(F)cc1F
4. O=C1NC2c3c(I)sc(I)c3/C(=N\O)C2O1 (stereo not drawn)
5. CCNCCCCNCCCCNCCCCNCCCCNCC

Found:
["> 100 µM", "> 100 µM", "> 100 µM", "> 100 µM", "> 100 µM"]

Give TGI for all compounds that follow.
1. C[n+]1c2ccccc2n2c3ccccc3c(NCCCN3CCOCC3)c(C#N)c21
2. COc1ccc2c(c1)C(N)=C(c1ccccc1OC)C2=O
3. c1ccc(NNC2=NCCN2)cc1
4. CCOC(=O)/C=C/C1=C(c2ccsc2)c2ccc(OC)cc2CC1
5. CN(C)c1nc(=Nc2ccc3c(c2)OCO3)ss1
6. CCn1c2ccccc2c2cc(/C=C(/C#N)C(N)=S)ccc21

Found:
6.2 µM
> 100 µM
> 100 µM
> 62.8 µM
> 100 µM
0.0236 µM

Give TGI for all compounds that follow.
1. O=C1CSC(c2ccccc2O)N1c1ccc(-c2ccc(-n3c(-c4ccccc4)nc4ccccc4c3=O)cc2)cc1 (stereo not drawn)
2. COc1ccc2c3c1O[C@H]1[C@@H](O)CC[C@@]4(O)[C@@H](C2)N(C)CC[C@]314
3. CCN(CC)CCn1ncc2c3c(=O)c4cccnc4n(CCN(CC)CC)c3ccc21

Found:
1. > 100 µM
2. > 100 µM
3. > 10 µM

Give TGI for all compounds that follow.
1. CCC1CC(C)C(O)/C=C/C=C/CC(C)OC(=O)CC(O)C(OC)C1OC1OC(C)CC(O)(C(C)=O)C1O (stereo not drawn)
2. CN(NC(=O)/C(=C/c1ccc(Cl)cc1)NC(=O)c1ccccc1)c1cn[nH]c(=O)c1Cl
3. Cn1c(C(O)C2(c3cccnc3)SCCCS2)cc2ccccc21 (stereo not drawn)
4. COc1cc(/C=C/C(=O)Nc2ccc3c(c2)/C(=C\c2cccn2C)C(=O)N3)cc(OC)c1OC

Found:
1. > 100 µM
2. > 100 µM
3. > 100 µM
4. 32 µM

---

Please respond with reported TGI for every item in the list.
- Tested on: HS 578T breast
- ASSAY_REMARKS: NCI tumour cell line growth inhibition, 48 h

Some entries whose results are on file:
>  <COMPOUND>
C[C@]1(O)CC[C@H]2[C@@H]3CCc4cc(O)ccc4[C@H]3CC[C@@]21C

>  <TGI>
4.98 µM

$$$$
>  <COMPOUND>
O=C(/C=C/c1cc2ccccc2[nH]c1=O)c1ccc(Cl)cc1

>  <TGI>
> 100 µM

$$$$
>  <COMPOUND>
CCNCCCn1c2c(c3ccc(F)cc3c1=O)C(=O)c1cc(OC)cnc1-2

>  <TGI>
13.5 µM

$$$$

Give TGI for all compounds that follow.
1. c1cc(-c2ccc(-c3ccc(C4=NCCCN4)cc3)o2)ccc1C1=NCCCN1
2. CC(=O)OC1CC2CC(=O)CC1N2C (stereo unspecified)
3. O=C(NCCOC(=O)OCCNC(=O)NC1CCCCC1)NC1CCCCC1
4. O=C(Nc1c(Cl)cccc1Cl)c1c(Cl)c(Cl)c(Cl)c(Cl)c1-c1nc2ccccc2[nH]1
5. C=C1CC2(OC1=O)C(=O)N(C)c1ccc(I)cc12 (stereo unspecified)

Found:
1: > 100 µM; 2: > 100 µM; 3: > 100 µM; 4: > 100 µM; 5: > 22.7 µM

Give TGI for all compounds that follow.
1. N#C/C(C(=O)Nc1ccccc1)=C(/N)N1CCCC1
2. COC(=O)C1(NC(=O)C(CC(=O)OCc2ccccc2)NC(=O)OCc2ccccc2)CCCCCCC1 (stereo unspecified)
3. COc1ccc(Nc2nn3c(=O)c4c(C)c(C)sc4nc3s2)cc1
4. COC(=O)Cc1cccc2c1CCC2=O
5. CCOC(=O)NC(=O)c1cn(CCCOC(=O)CCCCCCCCC(=O)OCCCn2cc(C(=O)NC(=O)OCC)c(=O)n(C)c2=O)c(=O)n(C)c1=O
6. CN1CCCC1c1cccnc1.O=C(O)c1ccccc1O.O=C([O-])c1ccccc1[OH2+].O=C([O-])c1ccccc1[OH2+].O=C([O-])c1ccccc1[OH2+].[Cu+2] (stereo unspecified)
7. NC(=S)N/N=C/c1c[nH]c2ccccc12
8. CCOC(=O)Cc1csc(NC(=O)COC(=O)c2ccc(N)cc2)n1

Found:
> 100 µM
> 100 µM
> 100 µM
> 100 µM
> 100 µM
> 100 µM
> 100 µM
> 100 µM

Give TGI for all compounds that follow.
1. COc1ccc(S(=O)Cc2cc(OC)c(OC)c(OC)c2)cc1 (stereo unspecified)
2. CCNCCCCNCCCCNCCCCNCCCCNCC

Found:
1: > 100 µM; 2: 26.3 µM

---

- Tested on: NCI-H522 lung
- ASSAY_REMARKS: NCI tumour cell line growth inhibition, 48 h; in the data active = GI50 below about 0.43 µM; inactive = the rest
Please state which outcome applies, choosing from active, inactive

>  <COMPOUND>
COc1cccc2c1C(=O)c1c(O)c3c(c(O)c1C2=O)CC(O)(/C(C)=N/NC(=O)CCCCC(=O)N/N=C(\C)C1(O)Cc2c(O)c4c(c(O)c2C(OC2CC(N)C(O)C(C)O2)C1)C(=O)c1c(OC)cccc1C4=O)CC3OC1CC(N)C(O)C(C)O1 (stereo unspecified)

>  <CATEGORY>
active

$$$$

Lookup: How did this test come out for `Brc1ccc(SCN(CSc2ccc(Br)cc2)Cc2ccccc2)cc1` ?
Found: inactive

Lookup: How did this test come out for `O=C1C(Cl)=C(Nc2cccc(O)c2)C(=O)N1CCc1ccccc1` ?
Found: inactive

Lookup: How did this test come out for `COc1cc(C(=O)c2c(-c3ccccc3)oc3c(OC)cccc23)cc(OC)c1O` ?
Found: active

Lookup: How did this test come out for `CCNCCCn1c2c(c3ccc(F)cc3c1=O)C(=O)c1cc(OC)cnc1-2` ?
Found: active

Lookup: How did this test come out for `O=C(/C=C/c1cc2ccccc2[nH]c1=O)c1ccc(Cl)cc1` ?
Found: inactive
